Parameter MIC, tested on E. coli ATCC 25922, listed per item.

{"molecule": "NCC[C@H](O)C(=O)N[C@@H]1C[C@H](N)[C@@H](O[C@H]2O[C@H](CN)C=C[C@H]2N)[C@H](O[C@@H]2O[C@H](CO)[C@@H](O[C@H]3O[C@@H](CN)C=C[C@H]3N)[C@H]2O)[C@H]1O", "MIC": "1 to 16 µg/mL"}
{"molecule": "NC[C@H]1CC[C@@H](N)[C@@H](O[C@H]2[C@@H](O)[C@H](O[C@@H]3[C@@H](O)[C@H](N)C[C@H](N)[C@H]3O[C@H]3O[C@H](CO)CC[C@H]3N)O[C@@H]2CO)O1", "MIC": "1 to 16 µg/mL"}
